# maps each entry to its OD492nm
molecular target: UV-inactivated SARS-CoV preparation (Frankfurt 1 strain) (SARS-CoV strain Frankfurt 1); test: phage ELISA, plate 4 (no phage 0.051)
value_kind: OD492nm (OD492nm)

1. SC03-040 (scFv) scFv: AMAQVQLVQSGGGLVQPGGSLRLSCAASGFTFSSYAMHWVRQAPGKGLEYVSGISSNGGSTYYANSVKGRFTISRDNSKNTLYLQMGSLRAEDMAVYYCARTTNRAFDIWGQGTMVTVSSGTGGSGGTGSGTGGSTDIQMTQSPDSLAVSLGERATINCRSSQSVLYSSNNKNYLAWYQQKPGQPPKLLIYWASTRESGVPDRFSGSGSGTDFTLTISSLQAEDVAVYYCQQYYSSPYSFGQGTKLEIKRAA
0.616
2. SC03-044 (scFv) scFv: AMAEVQLVETGGGLVQPGGSLRLSCAASGFTFSSYAMHWVRQAPGKGLEYVSGISSNGGSTYYANSVKGRFTISRDNSKNTLYLQMGSLRAEDMAVYYCARTTNRAFDIWGQGTMVTVSSGTGGSGGTGSGTGGSTDIQMTQSPDSLAVSLGERATINCKSSQSVLYSSNNKNYLAWYQQKPGQPPKLLIYWASTRESGVPDRFRGSGSGTDFTLTISSLQAEDLAVYYCQQYYSTPYSFGQGTKLEIKRAA
0.518
3. SC03-033 (scFv) scFv: AMAQVQLVQSGTEVKKPGESLKISCKGSGYGFITYWIGWVRQMPGKGLEWMGIIYPGDSETRYSPSFQGQVTISADKSINTAYLQWSSLKASDTAIYYCAGGSGISTPMDVWGQGTTVTVSSGTGGSGGTGSGTGGSTDVVMTQSPDSLAVSLGERATINCKTSHNIFSRSNNKDYLAWYQQKPGQPPRLLIYWASTRASGVPERFSGSGSGTDFSLTISSLQAEDVAVYYCQQYYSSPMYSFGQGTKVEIKRAA
0.288
4. SC03-037 (scFv) scFv: AMAKVQLVQSGGGLIQPGGSLRLSCAASGFTVSSNYMSWVRQAPGKGLEWVSIVFSGGSTYYADSVKGRFTISRDNSKNTLYLQMNSLRAEDTAVYYCARDAHRGFGMDVWGQGTTVTVSSGTGGSGGTGSGTGGSTSSELTQDPAVSVALGQTVRITCQGDSLRSYYASWYQQKPGQAPVLVIYGKNNRPSGIPDRFSGSSSGNTASLTITGAQAEDEADYYCNGRDSSGNHWVFGGGTKLTVLGAA
0.287
